Value source: paper PMC12467033

- Target Desc: α-glucosidase (Saccharomyces cerevisiae)
- Test Details: Fluorescence quenching, binding and thermodynamics with α-glucosidase
- Measurement Conditions: T 304 K
Listing: Kq of selected molecules

# Structure Smiles, Target Desc, Kq
rows = [
    ("O=C(O)c1ccc(-c2c3nc(c(-c4ccc(C(=O)O)cc4)c4ccc([nH]4)c(-c4ccc(C(=O)O)cc4)c4nc(c(-c5ccc(C(=O)O)cc5)c5ccc2[nH]5)C=C4)C=C3)cc1.[Ni+2]", "α-glucosidase (Saccharomyces cerevisiae)", "14.23 ± 0.09 ×10^12 L/mol/s"),
    ("Nc1ccc(-c2c3nc(c(-c4ccc(N)cc4)c4ccc([nH]4)c(-c4ccc(N)cc4)c4nc(c(-c5ccc(N)cc5)c5ccc2[nH]5)C=C4)C=C3)cc1", "α-glucosidase (Saccharomyces cerevisiae)", "5.71 ± 0.01 ×10^12 L/mol/s"),
    ("O=C(O)c1ccc(-c2c3nc(c(-c4ccc(C(=O)O)cc4)c4ccc([nH]4)c(-c4ccc(C(=O)O)cc4)c4nc(c(-c5ccc(C(=O)O)cc5)c5ccc2[nH]5)C=C4)C=C3)cc1", "α-glucosidase (Saccharomyces cerevisiae)", "4.90 ± 0.02 ×10^12 L/mol/s"),
    ("O=C(O)c1ccc(-c2c3nc(c(-c4ccc(C(=O)O)cc4)c4ccc([nH]4)c(-c4ccc(C(=O)O)cc4)c4nc(c(-c5ccc(C(=O)O)cc5)c5ccc2[nH]5)C=C4)C=C3)cc1.[Cu+2]", "α-glucosidase (Saccharomyces cerevisiae)", "6.74 ± 0.03 ×10^12 L/mol/s"),
    ("Oc1ccc(-c2c3nc(c(-c4ccc(O)cc4)c4ccc([nH]4)c(-c4ccc(O)cc4)c4nc(c(-c5ccc(O)cc5)c5ccc2[nH]5)C=C4)C=C3)cc1", "α-glucosidase (Saccharomyces cerevisiae)", "6.97 ± 0.06 ×10^12 L/mol/s"),
]

* * *

Each entry below carries its recorded β-Sheet.
- Target Desc: α-amylase (Sus scrofa)
- Sequence (P00690 16-511): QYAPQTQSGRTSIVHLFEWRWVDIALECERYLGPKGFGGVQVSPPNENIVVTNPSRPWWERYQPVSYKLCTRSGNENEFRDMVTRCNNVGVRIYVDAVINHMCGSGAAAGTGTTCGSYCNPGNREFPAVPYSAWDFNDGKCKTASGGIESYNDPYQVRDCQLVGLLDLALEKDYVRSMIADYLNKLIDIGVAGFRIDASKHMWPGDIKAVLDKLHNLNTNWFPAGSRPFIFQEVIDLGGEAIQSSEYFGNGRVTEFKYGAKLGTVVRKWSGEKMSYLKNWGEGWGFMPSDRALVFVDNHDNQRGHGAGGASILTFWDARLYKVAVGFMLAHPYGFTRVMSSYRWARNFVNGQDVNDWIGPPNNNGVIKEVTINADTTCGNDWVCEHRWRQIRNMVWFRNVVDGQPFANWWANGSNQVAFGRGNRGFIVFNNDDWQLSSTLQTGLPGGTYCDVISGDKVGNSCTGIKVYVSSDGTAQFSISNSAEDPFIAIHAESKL
- Test Details: FTIR secondary structure analysis of α-AMY complexes
- Measurement Conditions: enzyme–porphyrin molar ratio 1:2, amide I band
Measured Property: β-Sheet (%)

# Structure Smiles, Target Desc, Unit, Measured Number
records = [
    ("O=C(O)c1ccc(-c2c3nc(c(-c4ccc(C(=O)O)cc4)c4ccc([nH]4)c(-c4ccc(C(=O)O)cc4)c4nc(c(-c5ccc(C(=O)O)cc5)c5ccc2[nH]5)C=C4)C=C3)cc1.[Cu+2]", "α-amylase (Sus scrofa)", "%", 10.94),
    ("Nc1ccc(-c2c3nc(c(-c4ccc(N)cc4)c4ccc([nH]4)c(-c4ccc(N)cc4)c4nc(c(-c5ccc(N)cc5)c5ccc2[nH]5)C=C4)C=C3)cc1", "α-amylase (Sus scrofa)", "%", 14.62),
    ("O=C(O)c1ccc(-c2c3nc(c(-c4ccc(C(=O)O)cc4)c4ccc([nH]4)c(-c4ccc(C(=O)O)cc4)c4nc(c(-c5ccc(C(=O)O)cc5)c5ccc2[nH]5)C=C4)C=C3)cc1", "α-amylase (Sus scrofa)", "%", 18.51),
    ("O=C(O)c1ccc(-c2c3nc(c(-c4ccc(C(=O)O)cc4)c4ccc([nH]4)c(-c4ccc(C(=O)O)cc4)c4nc(c(-c5ccc(C(=O)O)cc5)c5ccc2[nH]5)C=C4)C=C3)cc1.[Ni+2]", "α-amylase (Sus scrofa)", "%", 11.20),
    ("Oc1ccc(-c2c3nc(c(-c4ccc(O)cc4)c4ccc([nH]4)c(-c4ccc(O)cc4)c4nc(c(-c5ccc(O)cc5)c5ccc2[nH]5)C=C4)C=C3)cc1", "α-amylase (Sus scrofa)", "%", 12.92),
]

* * *

- Target Desc: α-amylase (Sus scrofa)
- Sequence (P00690 16-511): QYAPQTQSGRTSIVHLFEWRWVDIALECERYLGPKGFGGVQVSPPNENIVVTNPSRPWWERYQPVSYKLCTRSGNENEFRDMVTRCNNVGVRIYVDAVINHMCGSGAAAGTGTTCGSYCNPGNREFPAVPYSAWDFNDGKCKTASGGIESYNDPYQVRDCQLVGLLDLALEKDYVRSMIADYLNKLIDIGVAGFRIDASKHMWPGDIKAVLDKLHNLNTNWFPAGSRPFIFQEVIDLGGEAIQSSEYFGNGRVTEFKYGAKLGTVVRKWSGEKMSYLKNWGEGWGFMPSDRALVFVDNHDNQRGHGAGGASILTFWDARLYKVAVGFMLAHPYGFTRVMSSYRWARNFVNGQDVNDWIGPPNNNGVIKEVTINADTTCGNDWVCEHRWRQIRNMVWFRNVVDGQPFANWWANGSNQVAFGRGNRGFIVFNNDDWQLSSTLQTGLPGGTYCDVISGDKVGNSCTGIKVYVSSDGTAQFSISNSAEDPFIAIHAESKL
- Test Details: Fluorescence quenching, binding and thermodynamics with α-amylase
- Measurement Conditions: T 298 K

# Structure Smiles, Unit, ΔG^0
data = [
    ("Nc1ccc(-c2c3nc(c(-c4ccc(N)cc4)c4ccc([nH]4)c(-c4ccc(N)cc4)c4nc(c(-c5ccc(N)cc5)c5ccc2[nH]5)C=C4)C=C3)cc1", "kJ/mol", -38.36),
    ("O=C(O)c1ccc(-c2c3nc(c(-c4ccc(C(=O)O)cc4)c4ccc([nH]4)c(-c4ccc(C(=O)O)cc4)c4nc(c(-c5ccc(C(=O)O)cc5)c5ccc2[nH]5)C=C4)C=C3)cc1", "kJ/mol", -34.79),
    ("Oc1ccc(-c2c3nc(c(-c4ccc(O)cc4)c4ccc([nH]4)c(-c4ccc(O)cc4)c4nc(c(-c5ccc(O)cc5)c5ccc2[nH]5)C=C4)C=C3)cc1", "kJ/mol", -32.82),
    ("O=C(O)c1ccc(-c2c3nc(c(-c4ccc(C(=O)O)cc4)c4ccc([nH]4)c(-c4ccc(C(=O)O)cc4)c4nc(c(-c5ccc(C(=O)O)cc5)c5ccc2[nH]5)C=C4)C=C3)cc1.[Cu+2]", "kJ/mol", -24.55),
    ("O=C(O)c1ccc(-c2c3nc(c(-c4ccc(C(=O)O)cc4)c4ccc([nH]4)c(-c4ccc(C(=O)O)cc4)c4nc(c(-c5ccc(C(=O)O)cc5)c5ccc2[nH]5)C=C4)C=C3)cc1.[Ni+2]", "kJ/mol", -39.92),
]

* * *

- Target Desc: α-glucosidase (Saccharomyces cerevisiae, UniProt P53341)
- Sequence (P53341 whole entry): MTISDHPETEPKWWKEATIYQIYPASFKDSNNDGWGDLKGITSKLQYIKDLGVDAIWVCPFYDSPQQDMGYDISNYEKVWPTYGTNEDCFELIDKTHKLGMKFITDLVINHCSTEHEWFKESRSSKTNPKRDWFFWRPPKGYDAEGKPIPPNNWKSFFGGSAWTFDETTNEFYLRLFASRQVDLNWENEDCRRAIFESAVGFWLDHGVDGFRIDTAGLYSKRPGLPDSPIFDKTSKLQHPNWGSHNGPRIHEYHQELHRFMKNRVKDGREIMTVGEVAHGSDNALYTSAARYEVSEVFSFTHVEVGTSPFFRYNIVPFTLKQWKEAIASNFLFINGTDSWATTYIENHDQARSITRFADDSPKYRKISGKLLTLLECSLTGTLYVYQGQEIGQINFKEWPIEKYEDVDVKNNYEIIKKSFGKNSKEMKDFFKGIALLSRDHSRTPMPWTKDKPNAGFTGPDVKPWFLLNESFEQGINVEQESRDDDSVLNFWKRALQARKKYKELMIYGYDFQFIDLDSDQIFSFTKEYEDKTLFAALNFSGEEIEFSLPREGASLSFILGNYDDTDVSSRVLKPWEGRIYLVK
- Test Details: Fluorescence quenching, binding and thermodynamics with α-glucosidase
- Measurement Conditions: T 304 K
- Protocol: In the α-amylase experiment, a series of porphyrins and amylase (200 U/L) were mixed in a volume ratio of 1:1. […] In the formula, the fluorescence quenching ratio was calculated as F0/F, where F0 corresponds to the emission intensity of pure α-amylase solution (control) and F denotes the intensity measured after the incremental addition of porphyrin ligands. […] Due to the presence of an internal filtration effect, a decrease in the fluorescence intensity of the system may occur. […]
Recorded ΔG^0 values for a group of molecules are listed next.

# Structure Smiles, ΔG^0, kJ/mol
rows = [
    ("Oc1ccc(-c2c3nc(c(-c4ccc(O)cc4)c4ccc([nH]4)c(-c4ccc(O)cc4)c4nc(c(-c5ccc(O)cc5)c5ccc2[nH]5)C=C4)C=C3)cc1", -34.36),
    ("Nc1ccc(-c2c3nc(c(-c4ccc(N)cc4)c4ccc([nH]4)c(-c4ccc(N)cc4)c4nc(c(-c5ccc(N)cc5)c5ccc2[nH]5)C=C4)C=C3)cc1", -29.98),
    ("O=C(O)c1ccc(-c2c3nc(c(-c4ccc(C(=O)O)cc4)c4ccc([nH]4)c(-c4ccc(C(=O)O)cc4)c4nc(c(-c5ccc(C(=O)O)cc5)c5ccc2[nH]5)C=C4)C=C3)cc1.[Cu+2]", -34.15),
    ("O=C(O)c1ccc(-c2c3nc(c(-c4ccc(C(=O)O)cc4)c4ccc([nH]4)c(-c4ccc(C(=O)O)cc4)c4nc(c(-c5ccc(C(=O)O)cc5)c5ccc2[nH]5)C=C4)C=C3)cc1.[Ni+2]", -30.96),
    ("O=C(O)c1ccc(-c2c3nc(c(-c4ccc(C(=O)O)cc4)c4ccc([nH]4)c(-c4ccc(C(=O)O)cc4)c4nc(c(-c5ccc(C(=O)O)cc5)c5ccc2[nH]5)C=C4)C=C3)cc1", -32.01),
]
